B1: mRNA-splicing (parent)
chain: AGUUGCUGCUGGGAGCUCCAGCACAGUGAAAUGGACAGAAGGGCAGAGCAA

- Variants of: B1
- Protocol details: exon inclusion enrichment index; higher = more inclusion; WT1 exon 5 minigene, HEK293
Experimental readout: exon inclusion enrichment index
Respond using a number only.

1. G5C C6U G8C C9U U10C U27A    2.29
2. G5C C6G U7C U10C G21C C22G    4.61
3. C19G A20U    2.21
4. G5A U7C G8A U10C A14U G15A    0.514

Input: What does the record list as exon inclusion enrichment index for G5C C6A U7C G8A U10A C18U C19U ?
Output: 0.00236

Input: And then G5A C6U U7A G8U C9A A30C A31U , what is it?
Output: 0.0899

Input: And then G5U G8U C9U G12A G13A , what is it?
Output: 0.0133

Input: And then C6A U7C C9A U10C G11U G12C , what is it?
Output: 1.94

Input: And then C6A U7A C9A U10A C16U U17A , what is it?
Output: 0.291

Input: And then C6A U7A C9A U10A C24U A25G , what is it?
Output: 1.3

Input: And then G5A C6U U7A G8U C9A G42C G43C , what is it?
Output: 0.451

Input: And then U3C G5U G8U C9U , what is it?
Output: 0.0225

Input: And then G5C C6U G8C C9U U10C G15C C16U , what is it?
Output: 1.9

Input: And then G2U , what is it?
Output: 0.476

Input: And then C6A U7C C9A U10C C44U A45U , what is it?
Output: 2.71

Input: And then G5U G8U C9U G42C G43U , what is it?
Output: 0.515
